- experiment-summary: Oral bioavailability in C57 black mouse at 20 mg/kg
- Format: ADME, organism-based
- conditions-used: in vivo
measured-attribute: bioavailability (%)

> print(dat)
                                   molecule  measured.attribute   val
1  Cc1cc(C(F)(F)F)ccc1-c1ccc2nn(C(CC(C)C)c3ccc(C(=O)NCCC(=O)O)cc3)cc2c1Cl (racemic)     bioavailability  97.7
2  Cc1cc(C(F)(F)F)ccc1-c1cc2cnn(C(CC(C)C)c3ccc(C(=O)NCCC(=O)O)nc3)c2cc1C (racemic)     bioavailability  94.7
3  CC(C)CC(c1ccc(C(=O)NCCC(=O)O)cc1)n1ccc2cc(-c3ccc(C(F)(F)F)cc3)ccc21 (racemic)     bioavailability  68.7

----------
- system-tested: Glucagon receptor (Homo sapiens, UniProt P47871)
- Sequence (P47871 whole entry): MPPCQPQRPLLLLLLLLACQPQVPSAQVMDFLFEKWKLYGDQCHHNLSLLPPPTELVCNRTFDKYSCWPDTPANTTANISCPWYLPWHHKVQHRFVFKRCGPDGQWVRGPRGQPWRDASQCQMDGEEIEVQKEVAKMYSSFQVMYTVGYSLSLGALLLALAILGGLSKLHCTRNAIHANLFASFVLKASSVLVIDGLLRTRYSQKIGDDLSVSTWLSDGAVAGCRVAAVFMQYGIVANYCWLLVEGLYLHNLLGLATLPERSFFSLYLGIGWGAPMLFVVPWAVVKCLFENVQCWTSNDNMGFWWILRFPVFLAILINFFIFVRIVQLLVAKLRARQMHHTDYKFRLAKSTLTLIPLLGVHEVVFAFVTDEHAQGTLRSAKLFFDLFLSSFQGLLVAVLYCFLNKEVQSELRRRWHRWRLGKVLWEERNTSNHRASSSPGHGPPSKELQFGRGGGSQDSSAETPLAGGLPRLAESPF
- experiment-summary: Antagonist activity at full length human recombinant GCGR transfected in HEK293 cells assessed as inhibition of glucagon-stimulated cAMP by LANCE assay
measured-attribute: Ki (nM)

Recorded results for 3 compounds are shown here.
> print(dat)
                                   compound   val
1  Cc1cc(C(F)(F)F)ccc1-c1ccc2c(ccn2C(CC(C)C)c2ccc(C(=O)NCCC(=O)O)cc2)c1 (racemic)    85
2  CC(C)CC(c1ccc(C(=O)NCCC(=O)O)cc1)n1ncc2cc(-c3cc(Cl)cc(Cl)c3)ccc21 (racemic)  1650
3  CC(C)CC(c1ccc(C(=O)NCCC(=O)O)cc1)n1ncc2cc(-c3ccc(C(C)(C)C)cc3)ccc21 (racemic)   125

1 = CC(C)CC(c1ccc(C(=O)NCCC(=O)O)cc1)n1ccc2cc(-c3ccc(C(C)(C)C)cc3)ccc21 (racemic)
2 = CC(C)CC(c1ccc(C(=O)NCCC(=O)O)cc1)n1ncc2cc(-c3ccc(N4CCN(C)CC4)cc3)ccc21 (racemic)
3 = Cc1c(-c2ccc(C(F)(F)F)cc2Cl)ccc2nn(C(CC(C)C)c3ccc(C(=O)NCCC(=O)O)cc3)cc12 (racemic)
Input: Would you mind ranking these compounds by ascending Ki? Returns: the labels arranged in the requested order.
Output: 3, 1, 2

----------
- experiment-summary: AUClast in Sprague Dawley rat at 10 mg/kg, po
- Type: ADME, organism-based
- Parameters: dose 10 mg/kg, route oral, time 0 - last
- conditions-used: in vivo
measured-attribute: AUC(0-t) (µM·h)
API: value field is a number in µM·h; no unit string.

AUC(0-t) reading for CC(C)CC(c1ccc(C(=O)NCCC(=O)O)cc1)n1ccc2cc(-c3ccc(C(F)(F)F)cc3)ccc21 (racemic) : 14.3

----------
- experiment-summary: Volume of distribution at steady state in Sprague Dawley rat at 2 mg/kg, iv
- Type: ADME, organism-based
- conditions-used: in vivo, read-out: Vdss
measured-attribute: Vd (L/kg)
API: value field is a number in L/kg; no unit string.

Vd reading for CC(C)CC(c1ccc(C(=O)NCCC(=O)O)cc1)n1ccc2cc(-c3ccc(C(F)(F)F)cc3)ccc21 (racemic) : 3.65

----------
- experiment-summary: Elimination half life in Sprague Dawley rat at 10 mg/kg, po
- Format: ADME, organism-based
- conditions-used: in vivo, read-out: beta t1/2 (converted)
measured-attribute: half-life (h)
API: value field is a number in h; no unit string.

half-life reading for CC(C)CC(c1ccc(C(=O)NCCC(=O)O)cc1)n1ccc2cc(-c3ccc(C(F)(F)F)cc3)ccc21 (racemic) : 5.2
